Numbers sourced from ChEMBL document CHEMBL4342462.

target: Induced myeloid leukemia cell differentiation protein Mcl-1 (Homo sapiens)
Sequence (Q07820 whole entry): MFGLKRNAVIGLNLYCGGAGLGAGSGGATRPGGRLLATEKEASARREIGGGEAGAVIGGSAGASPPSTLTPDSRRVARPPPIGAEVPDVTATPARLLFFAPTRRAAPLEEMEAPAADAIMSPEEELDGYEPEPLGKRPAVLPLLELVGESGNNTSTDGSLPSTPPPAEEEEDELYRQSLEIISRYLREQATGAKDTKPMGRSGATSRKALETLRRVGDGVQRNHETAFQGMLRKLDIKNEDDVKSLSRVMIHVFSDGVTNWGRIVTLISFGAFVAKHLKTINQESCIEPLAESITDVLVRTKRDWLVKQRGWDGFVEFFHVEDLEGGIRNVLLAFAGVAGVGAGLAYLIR
Class (by Ki) -- low range: < 300 nM; mid range: ≥ 300 nM and < 3000 nM; high range: ≥ 3000 nM

Recorded results for 4 compounds are shown here.
{"Chemical string": "O=C(O)c1cc(SCCc2ccccc2)ccc1NS(=O)(=O)N1CCC(c2ccccc2)CC1", "System name": "Induced myeloid leukemia cell differentiation protein Mcl-1 (Homo sapiens)", "Class label": "mid range"}
{"Chemical string": "O=C(O)c1cc(SCCc2ccccc2)ccc1NS(=O)(=O)N1CCN(Cc2ccccc2)CC1", "System name": "Induced myeloid leukemia cell differentiation protein Mcl-1 (Homo sapiens)", "Class label": "mid range"}
{"Chemical string": "O=C(O)c1cc(SCCc2ccccc2)ccc1NS(=O)(=O)c1ccc(-c2ccccc2)nc1", "System name": "Induced myeloid leukemia cell differentiation protein Mcl-1 (Homo sapiens)", "Class label": "low range"}
{"Chemical string": "Nc1ccc(SCCc2ccccc2)cc1C(=O)O", "System name": "Induced myeloid leukemia cell differentiation protein Mcl-1 (Homo sapiens)", "Class label": "high range"}

Data request: Which category fits this record: `O=C(O)c1cc(SCc2ccccc2)ccc1NS(=O)(=O)c1ccccc1`
Data returned: mid range

Data request: Continue with `O=C(O)c1cc(SCCc2ccccc2)ccc1NS(=O)(=O)c1ccccc1`
Data returned: mid range

Data request: Continue with `O=C(Nc1ccc(SCCc2ccccc2)cc1C(=O)O)c1ccccc1`
Data returned: mid range

Data request: Continue with `O=C(O)c1cc(SCCc2ccccc2)ccc1NS(=O)(=O)c1ccc(-c2ccccc2)cc1`
Data returned: low range

Data request: Continue with `O=C(O)c1ccccc1NS(=O)(=O)c1ccccc1`
Data returned: high range

Data request: Continue with `O=C(Cc1ccccc1)Nc1ccc(NS(=O)(=O)c2ccccc2)c(C(=O)O)c1`
Data returned: high range

Data request: Continue with `O=C(O)c1cc(SCCc2ccccc2)ccc1NS(=O)(=O)c1cccs1`
Data returned: mid range

Data request: Continue with `CC(C)(C)c1ccc(N2CCN(S(=O)(=O)Nc3ccc(SCCc4cccc(O)c4)cc3C(=O)O)CC2)cc1`
Data returned: low range

Data request: Continue with `CC(C)(C)c1ccc(N2CCN(S(=O)(=O)Nc3ccc(SCCc4ccccc4)cc3C(=O)O)CC2)cc1`
Data returned: low range

Data request: Continue with `O=C(O)c1cc(SCCc2ccccc2)ccc1NS(=O)(=O)N1CCN(c2ccccc2)CC1`
Data returned: mid range

Data request: Continue with `O=C(CCc1ccccc1)Nc1ccc(NS(=O)(=O)c2ccccc2)c(C(=O)O)c1`
Data returned: high range

---

molecular target: Bcl-2-like protein 1 (Homo sapiens, UniProt Q07817)
Sequence (Q07817 whole entry): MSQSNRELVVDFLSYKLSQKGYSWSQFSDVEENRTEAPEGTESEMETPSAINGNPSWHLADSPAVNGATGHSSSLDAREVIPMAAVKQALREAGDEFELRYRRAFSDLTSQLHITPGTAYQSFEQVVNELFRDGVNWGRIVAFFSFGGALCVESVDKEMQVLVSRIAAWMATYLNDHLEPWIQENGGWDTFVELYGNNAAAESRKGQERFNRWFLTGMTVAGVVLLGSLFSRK
Parameter: pKi
Answers are plain numbers, as −log10 of the molar value.

{"Chemical string": "COc1cccc(CCSc2ccc(NS(=O)(=O)N3CCN(c4ccc(C(C)(C)C)cc4)CC3)c(C(=O)O)c2)c1", "System name": "Bcl-2-like protein 1 (Homo sapiens, UniProt Q07817)", "Reported value": 5.17}
{"Chemical string": "O=C(O)c1cc(SCCc2ccccc2)ccc1NS(=O)(=O)N1CCN(c2ccccc2)CC1", "System name": "Bcl-2-like protein 1 (Homo sapiens, UniProt Q07817)", "Reported value": 5.18}

Data request: pKi of `CC(C)(C)c1ccc(N2CCN(S(=O)(=O)Nc3ccc(SCCc4ccccc4)cc3C(=O)O)CC2)cc1` on Bcl-2-like protein 1 (Homo sapiens, UniProt Q07817)?
Data returned: 5.46
